src = paper PMC5975898

- study_target: human 20S proteasome ChT-L activity
- test_method_notes: Steady-state enzyme kinetics of ChT-L inhibition (Lineweaver-Burk plot)
- assay_conditions: read-out: inhibitor affinity constant KI, Suc-LLVY-AMC 6 to 100 μM, fit with eqn (4a)
pKi: −log10 of the molar value.
measured_metric: pKi

- compound: "C[n+]1ccc(-c2c3nc(c(-c4cc[n+](C)cc4)c4ccc([nH]4)c(-c4cc[n+](C)cc4)c4nc(c(-c5cc[n+](C)cc5)c5ccc2[nH]5)C=C4)C=C3)cc1 [H2T4]"
  measured_metric: "pKi"
  recorded_measurement: 6.44

---

- study_target: human 20S proteasome PGPH-L activity
- Construct: purchased Boston Biochem
- test_method_notes: 20S proteasome PGPH-L activity inhibition assay (Z-Leu-Leu-Glu-AMC)
- Assay type: biochemical
- assay_conditions: read-out: IC50 PGPH-L (Figure S1); figure inset, semi-log plot of residual CP activity
pIC50: −log10 of the molar value.
# Lookup of reported pIC50 keyed by entry
measured_metric: pIC50

- molecule: "C[n+]1cccc(-c2c3nc(c(-c4ccc[n+](C)c4)c4ccc([nH]4)c(-c4ccc[n+](C)c4)c4nc(c(-c5ccc[n+](C)c5)c5ccc2[nH]5)C=C4)C=C3)c1 [meta-H2T4, meso-tetra(3-N-metil-pyridyl) porphyrin]"
  recorded_measurement: 6.68
- molecule: "C[n+]1ccc(-c2c3nc(c(-c4cc[n+](C)cc4)c4ccc([nH]4)c(-c4cc[n+](C)cc4)c4nc(c(-c5cc[n+](C)cc5)c5ccc2[nH]5)C=C4)C=C3)cc1 [H2T4]"
  recorded_measurement: 6.52

---

- study_target: human 20S proteasome ChT-L activity
- Construct: purchased Boston Biochem
- test_method_notes: 20S proteasome ChT-L activity inhibition assay (Suc-LLVY-AMC)
- Type: biochemical
- assay_conditions: read-out: IC50 ChT-L (Figure S1); figure inset, semi-log plot of residual CP activity
- Experimental: Purified human 20S proteasome and the fluorogenic substrates Suc-LLVY-AMC, Z-Leu-Leu-Glu-AMC, and Ac-Arg-Leu-Arg-AMC used to test the ChT-L, PGPH-L, and T-L activity, respectively, were purchased from Boston Biochem (Cambridge, MA, USA). Proteasome activity assays were performed in vitro by mixing 20S proteasome (2 nM) with 100 μM of the proper fluorogenic peptide in the assay buffer (i.e., 25 mM HEPES, 0.5 mM EDTA, pH 7.6) in a 384 multiwell black plate. […]
pIC50: −log10 of the molar value.
Below, each entry is listed alongside its reported pIC50.

- compound: "C[n+]1cccc(-c2c3nc(c(-c4ccc[n+](C)c4)c4ccc([nH]4)c(-c4ccc[n+](C)c4)c4nc(c(-c5ccc[n+](C)c5)c5ccc2[nH]5)C=C4)C=C3)c1 [meta-H2T4, meso-tetra(3-N-metil-pyridyl) porphyrin]"
  pIC50: 6.03
- compound: "C[n+]1ccc(-c2c3nc(c(-c4cc[n+](C)cc4)c4ccc([nH]4)c(-c4cc[n+](C)cc4)c4nc(c(-c5cc[n+](C)cc5)c5ccc2[nH]5)C=C4)C=C3)cc1 [H2T4]"
  pIC50: 6.33

---

The following compounds are listed with their measured IC50 values.
- study_target: human 20S proteasome T-L activity
- Construct: purchased Boston Biochem
- test_method_notes: 20S proteasome T-L activity inhibition assay (Ac-Arg-Leu-Arg-AMC)
- Format: biochemical
- assay_conditions: read-out: IC50 best-fit value, T-L activity (Table S1); nonlinear fit of dose-response plot
measured_metric: IC50 (nM)

- smiles_entry: "C[n+]1ccc(-c2c3nc(c(-c4cc[n+](C)cc4)c4ccc([nH]4)c(-c4cc[n+](C)cc4)c4nc(c(-c5cc[n+](C)cc5)c5ccc2[nH]5)C=C4)C=C3)cc1"
  study_target: "human 20S proteasome T-L activity"
  measured_metric: "IC50"
  recorded_measurement: 466
- smiles_entry: "C[n+]1cccc(-c2c3nc(c(-c4ccc[n+](C)c4)c4ccc([nH]4)c(-c4ccc[n+](C)c4)c4nc(c(-c5ccc[n+](C)c5)c5ccc2[nH]5)C=C4)C=C3)c1"
  study_target: "human 20S proteasome T-L activity"
  measured_metric: "IC50"
  recorded_measurement: 1160
